- procedure.text: MRT in CD-1 mouse plasma at 8 mg/kg, po measured up to 8 hrs
- Assay type: ADME, organism-based

smiles.structure: COc1ccc(-c2ccc(CO[C@H]3C[C@@H](N=C=S)C3)nc2)cc1F
MRT [h]: 1.07

* * *

- test.target: Voltage-gated inwardly rectifying potassium channel KCNH2 (Homo sapiens, UniProt Q12809)
- Sequence (Q12809 whole entry): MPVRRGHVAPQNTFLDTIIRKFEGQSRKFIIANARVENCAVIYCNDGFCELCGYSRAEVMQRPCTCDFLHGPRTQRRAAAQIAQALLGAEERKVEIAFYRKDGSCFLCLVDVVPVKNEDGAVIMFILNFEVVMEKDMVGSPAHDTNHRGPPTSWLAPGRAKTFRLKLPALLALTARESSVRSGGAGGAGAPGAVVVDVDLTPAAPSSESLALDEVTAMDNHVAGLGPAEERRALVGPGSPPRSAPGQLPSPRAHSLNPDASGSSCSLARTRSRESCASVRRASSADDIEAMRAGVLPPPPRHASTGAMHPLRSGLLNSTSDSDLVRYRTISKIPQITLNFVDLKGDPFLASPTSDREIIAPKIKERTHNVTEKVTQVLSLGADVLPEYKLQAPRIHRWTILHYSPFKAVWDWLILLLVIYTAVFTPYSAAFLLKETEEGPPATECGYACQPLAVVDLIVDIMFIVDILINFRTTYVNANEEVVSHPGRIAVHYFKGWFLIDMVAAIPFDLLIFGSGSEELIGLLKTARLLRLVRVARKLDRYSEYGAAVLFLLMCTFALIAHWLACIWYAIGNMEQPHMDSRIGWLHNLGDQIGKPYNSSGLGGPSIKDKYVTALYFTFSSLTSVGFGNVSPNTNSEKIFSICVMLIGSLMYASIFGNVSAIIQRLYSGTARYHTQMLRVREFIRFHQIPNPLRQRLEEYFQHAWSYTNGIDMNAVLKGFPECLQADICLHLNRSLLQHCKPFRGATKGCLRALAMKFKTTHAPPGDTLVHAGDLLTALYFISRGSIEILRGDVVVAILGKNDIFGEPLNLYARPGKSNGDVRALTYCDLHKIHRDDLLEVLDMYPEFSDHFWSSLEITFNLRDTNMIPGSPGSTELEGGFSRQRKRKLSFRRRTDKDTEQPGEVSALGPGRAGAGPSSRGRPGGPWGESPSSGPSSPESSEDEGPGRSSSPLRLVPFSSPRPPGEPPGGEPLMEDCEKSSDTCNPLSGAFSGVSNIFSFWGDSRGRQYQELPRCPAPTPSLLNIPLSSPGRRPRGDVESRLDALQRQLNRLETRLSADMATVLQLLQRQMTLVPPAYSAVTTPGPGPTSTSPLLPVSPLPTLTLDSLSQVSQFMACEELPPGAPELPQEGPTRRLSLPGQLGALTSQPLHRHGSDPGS
pIC50: −log10 of the molar value.
measurement.kind: pIC50

smiles.structure: COc1ccc(-c2ccc(CO[C@H]3C[C@@H](N=C=S)C3)nc2)cc1F
measurement.kind: pIC50
measured.value: 4.72

* * *

- procedure.text: Half life in human liver microsomes at 1 uM in presence of NADPH by LC-MS/MS analysis
- Assay type: ADME, Microsome
Would you mind labelling by half-life at 1 µM? At or over 8 min is Yes, under is No.

smiles.structure: Fc1cc(-c2ccc(OC(F)(F)F)c(F)c2)ccc1CO[C@H]1C[C@@H](N=C=S)C1
classification: Yes

smiles.structure: COc1cnc(-c2cnc(CO[C@H]3C[C@@H](N=C=S)C3)c(F)c2)cc1F
classification: No

smiles.structure: COc1ccc(-c2ccc(CO[C@H]3C[C@@H](N=C=S)C3)nc2)cc1F
classification: Yes

smiles.structure: COc1ccc(-c2ccc(OC(=O)N[C@H]3C[C@@H](N=C=S)C3)cc2)cc1
classification: No

* * *

- procedure.text: Half life in CD-1 mouse plasma at 8 mg/kg, po measured up to 8 hrs
- Type: ADME, organism-based
measurement.kind: half-life (min)

smiles.structure: COc1ccc(-c2ccc(CO[C@H]3C[C@@H](N=C=S)C3)nc2)cc1F
measurement.kind: half-life
measured.value: 31.5

* * *

# Lookup of reported concentration at 1 h keyed by entry
- procedure.text: Drug concentration in plasma of CD-1 mouse at 8 mg/kg, po administered as single cassette dose measured after 60 mins
- Assay type: ADME, organism-based

smiles.structure: Fc1cc(-c2ccc(OC(F)(F)F)c(F)c2)ccc1CO[C@H]1C[C@@H](N=C=S)C1
measurement.unit: ng/mL
concentration at 1 h: 7
//
smiles.structure: COc1ccc(-c2ccc(S(=O)(=O)N[C@H]3C[C@@H](N=C=S)C3)cc2)cc1
measurement.unit: ng/mL
concentration at 1 h: 20
//
smiles.structure: Fc1cc(-c2cccc(C(F)(F)F)c2)ccc1CO[C@H]1C[C@@H](N=C=S)C1
measurement.unit: ng/mL
concentration at 1 h: 331
//
smiles.structure: COc1ccc(-c2ccc(C(=O)N[C@H]3C[C@@H](N=C=S)C3)nc2)cc1
measurement.unit: ng/mL
concentration at 1 h: 8
//
smiles.structure: COc1ccc(-c2ccc(CO[C@H]3C[C@@H](N=C=S)C3)nc2)cc1F
measurement.unit: ng/mL
concentration at 1 h: 54
//
smiles.structure: COc1ccc(-c2ccc(S(=O)(=O)N[C@H]3C[C@@H](N=C=S)C3)nc2)cc1
measurement.unit: ng/mL
concentration at 1 h: 2
//
smiles.structure: Fc1cc(-c2ccc3c(c2)OCO3)ccc1CO[C@H]1C[C@@H](N=C=S)C1
measurement.unit: ng/mL
concentration at 1 h: 13
//
smiles.structure: COc1ccc(-c2ccc(C(=O)N[C@H]3C[C@@H](N=C=S)C3)nc2)cc1F
measurement.unit: ng/mL
concentration at 1 h: 8
//
smiles.structure: Fc1cc(-c2ccc3c(c2)OCCO3)ccc1CO[C@H]1C[C@@H](N=C=S)C1
measurement.unit: ng/mL
concentration at 1 h: 7
